- System: biotinyl-Ile-oxazolone
- Run Description: self-aminoacylation, catalytic enhancement (BIO) (fold over background); higher = more active; k-Seq, kA / k0A0; sequences stand for … in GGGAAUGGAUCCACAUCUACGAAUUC…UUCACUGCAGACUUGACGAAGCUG
Fewer inactive variants are shown than the library holds.
Outcome label depends on self-aminoacylation relative to 2: at/above gives Y, below gives N.

{"Polymer Sequence": "AAGUUUGCUAAUAGUUGUAAG [Fam3.1 aminoacylation ribozyme variant]", "Class Label": "N"}
{"Polymer Sequence": "AUUCGCCUAGGUCAUCGAGUG [Fam2.2 aminoacylation ribozyme variant]", "Class Label": "Y"}
{"Polymer Sequence": "CUACUUCAAACAAUCUGUCUU [Fam1A.1 aminoacylation ribozyme variant]", "Class Label": "N"}
{"Polymer Sequence": "AUUCGCCUAGCUCAUCGGGUG [Fam2.2 aminoacylation ribozyme variant]", "Class Label": "Y"}
{"Polymer Sequence": "CCAUACUUCAAGCAAUUGGUC [Fam1B.1 aminoacylation ribozyme variant]", "Class Label": "N"}
{"Polymer Sequence": "ACACACUUCAAGCAUUCGGUC [Fam1B.1 aminoacylation ribozyme variant]", "Class Label": "N"}
{"Polymer Sequence": "CCACAUUUCCAGCAAUCGGUC [Fam1B.1 aminoacylation ribozyme variant]", "Class Label": "Y"}
{"Polymer Sequence": "AUUGCCCUGUUCAUCGAGUGA [Fam2.1 aminoacylation ribozyme variant]", "Class Label": "Y"}
{"Polymer Sequence": "AUUCACCUAGGUCUACGGGUG [Fam2.2 aminoacylation ribozyme variant]", "Class Label": "Y"}
{"Polymer Sequence": "CCACACUUCAAACAAUCCGUC [Fam1B.1 aminoacylation ribozyme variant]", "Class Label": "N"}
{"Polymer Sequence": "CCACACUUCAAGCCAUCGUUC [Fam1B.1 aminoacylation ribozyme variant]", "Class Label": "N"}
{"Polymer Sequence": "AUAACCCUGGUCAUCCAGUGA [Fam2.1 aminoacylation ribozyme variant]", "Class Label": "Y"}
{"Polymer Sequence": "AUUCACCUUGCUCAUCGGGUG [Fam2.2 aminoacylation ribozyme variant]", "Class Label": "N"}
{"Polymer Sequence": "AUUCCCCUCGGUCAUCGGGUG [Fam2.2 aminoacylation ribozyme variant]", "Class Label": "Y"}
{"Polymer Sequence": "AAGUUUGCUAAUAGUCGCAUA [Fam3.1 aminoacylation ribozyme variant]", "Class Label": "N"}
{"Polymer Sequence": "CGACACUUCAAACAAUCGGUC [Fam1B.1 aminoacylation ribozyme variant]", "Class Label": "N"}
{"Polymer Sequence": "CCACACUUCAAGCAAGCGGUA [Fam1B.1 aminoacylation ribozyme variant]", "Class Label": "N"}

* * *

- System: biotinyl-Met-oxazolone
- Run Description: self-aminoacylation, catalytic enhancement (BMO) (fold over background); higher = more active; k-Seq, kA / k0A0; sequences stand for … in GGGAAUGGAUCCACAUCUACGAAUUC…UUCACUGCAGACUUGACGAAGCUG
Variants at the floor of the assay were thinned out.

{"Polymer Sequence": "GAGUCUGCUAAUAGUCGCAAG [Fam3.1 aminoacylation ribozyme variant]", "self-aminoacylation": 2.34}
{"Polymer Sequence": "AUUACCCUGGACAUUGAGUGA [Fam2.1 aminoacylation ribozyme variant]", "self-aminoacylation": 11.3}
{"Polymer Sequence": "CUACUUCAAACAGUUGGUCUG [Fam1A.1 aminoacylation ribozyme variant]", "self-aminoacylation": 0.538}
{"Polymer Sequence": "AUUCACCUUGCUCAUCGGGUG [Fam2.2 aminoacylation ribozyme variant]", "self-aminoacylation": 1.94}
{"Polymer Sequence": "AUUACACUGGUCAUCUAGUGA [Fam2.1 aminoacylation ribozyme variant]", "self-aminoacylation": 5.64}
{"Polymer Sequence": "AUUACCCCCGUCAUCGAGUGA [Fam2.1 aminoacylation ribozyme variant]", "self-aminoacylation": 4.43}
{"Polymer Sequence": "AUCCCCCUGGUCAUCGAGUGA [Fam2.1 aminoacylation ribozyme variant]", "self-aminoacylation": 5.79}
{"Polymer Sequence": "CCACACUUCAAGCCAUCGUUC [Fam1B.1 aminoacylation ribozyme variant]", "self-aminoacylation": 1.03}
{"Polymer Sequence": "UCACACUUUAAGCAAUCGGUC [Fam1B.1 aminoacylation ribozyme variant]", "self-aminoacylation": 0.694}
{"Polymer Sequence": "CCACACUCCAAGUAAUCGGUC [Fam1B.1 aminoacylation ribozyme variant]", "self-aminoacylation": 0.951}
{"Polymer Sequence": "CCACACAUCCAGCAAUCGGUC [Fam1B.1 aminoacylation ribozyme variant]", "self-aminoacylation": 1.05}
{"Polymer Sequence": "CUACUGCAAAAAAUCGGUCUG [Fam1A.1 aminoacylation ribozyme variant]", "self-aminoacylation": 0.686}
{"Polymer Sequence": "AUUCACCAAGGUCAUUGGGUG [Fam2.2 aminoacylation ribozyme variant]", "self-aminoacylation": 6.78}
{"Polymer Sequence": "AAUAUCCUGGUCAUCGAGUGA [Fam2.1 aminoacylation ribozyme variant]", "self-aminoacylation": 8.66}
{"Polymer Sequence": "UCACAAUUCAAGCAAUCGGUC [Fam1B.1 aminoacylation ribozyme variant]", "self-aminoacylation": 0.989}
{"Polymer Sequence": "AUUCAGCUAGGUUAUCGGGUG [Fam2.2 aminoacylation ribozyme variant]", "self-aminoacylation": 7.59}
{"Polymer Sequence": "CCACACUUCAAGGAAGCGGUC [Fam1B.1 aminoacylation ribozyme variant]", "self-aminoacylation": 1.06}
{"Polymer Sequence": "ACUCACCUAGGACAUCGGGUG [Fam2.2 aminoacylation ribozyme variant]", "self-aminoacylation": 3.82}
{"Polymer Sequence": "AAGUUUGCUAAUAGGCUCAAG [Fam3.1 aminoacylation ribozyme variant]", "self-aminoacylation": 0.493}
{"Polymer Sequence": "ACUCACCUAGGUCUUCGGGUG [Fam2.2 aminoacylation ribozyme variant]", "self-aminoacylation": 4.6}
{"Polymer Sequence": "AUUCACCUAGCUCAUCGGUUG [Fam2.2 aminoacylation ribozyme variant]", "self-aminoacylation": 0.921}
{"Polymer Sequence": "UCACACUUCAACCAAUCGGUC [Fam1B.1 aminoacylation ribozyme variant]", "self-aminoacylation": 1.71}
{"Polymer Sequence": "AUUAACCCAGGUCAUCGGGUG [Fam2.2 aminoacylation ribozyme variant]", "self-aminoacylation": 6.61}
{"Polymer Sequence": "AAUACCCUUGUCAUCGAGUGA [Fam2.1 aminoacylation ribozyme variant]", "self-aminoacylation": 4.58}
{"Polymer Sequence": "AUUUACCUAGGCCAUCGGGUG [Fam2.2 aminoacylation ribozyme variant]", "self-aminoacylation": 3.07}
{"Polymer Sequence": "CCAAACUUCUAGCAAUCGGUC [Fam1B.1 aminoacylation ribozyme variant]", "self-aminoacylation": 0.839}
{"Polymer Sequence": "GCACACUUCUAGCAAUCGGUC [Fam1B.1 aminoacylation ribozyme variant]", "self-aminoacylation": 0.936}
{"Polymer Sequence": "CCACAAUUCAAGCACUCGGUC [Fam1B.1 aminoacylation ribozyme variant]", "self-aminoacylation": 1.17}
{"Polymer Sequence": "ACUACCCUGGUCAUCGAGCGA [Fam2.1 aminoacylation ribozyme variant]", "self-aminoacylation": 1.91}
{"Polymer Sequence": "AAGUUUGCUAAUAGUCAGAAG [Fam3.1 aminoacylation ribozyme variant]", "self-aminoacylation": 1.01}
{"Polymer Sequence": "ACUACCCUGGUCAACGAGUGA [Fam2.1 aminoacylation ribozyme variant]", "self-aminoacylation": 5.53}
{"Polymer Sequence": "AAGUUUGCUAAUGGUCGGAAG [Fam3.1 aminoacylation ribozyme variant]", "self-aminoacylation": 0.811}
{"Polymer Sequence": "AUUACGCGGGUCAUCGAGUGA [Fam2.1 aminoacylation ribozyme variant]", "self-aminoacylation": 5.54}
{"Polymer Sequence": "AAGUUUGCUAAUAGUCGCAAU [Fam3.1 aminoacylation ribozyme variant]", "self-aminoacylation": 1.25}
{"Polymer Sequence": "AAGUUUGCUAAUCGUCGCACG [Fam3.1 aminoacylation ribozyme variant]", "self-aminoacylation": 0.842}
